Please go through the items and note down their myelination.
system: E18 rat cortical neuron-glia co-culture; assay: myelination (MBP fiber length per Olig2+ nucleus), % of 1 µM DAPT response (DMSO = 0) (% of DAPT); higher = more myelination, active = 50 or more; details: 5 µM; treatment time: 8 days (DIV5-DIV13)
Form: value (number only, do not type unit).

Identify measured myelination corresponding to C=CC1=C(C(=O)O)N2C(=O)[C@@H](NC(=O)/C(=N\OCC(=O)O)c3csc(N)n3)[C@H]2SC1 [Cefixime] 28.9

Identify measured myelination corresponding to CC(=O)OCC(=O)[C@@]1(O)CC[C@H]2[C@@H]3CCC4=CC(=O)C=C[C@]4(C)[C@H]3[C@@H](O)C[C@@]21C [Prednisolone acetate] -10.6

Identify measured myelination corresponding to CC(Oc1c(Cl)cccc1Cl)C1=NCCN1 (stereo unspecified) [lofexidine] 2.57

Identify measured myelination corresponding to CCc1ccc(CCOc2ccc(CC3SC(=O)NC3=O)cc2)nc1 (stereo unspecified) [Pioglitazone] -17.1

Identify measured myelination corresponding to C#C[C@]1(O)CC[C@H]2[C@@H]3CCC4=Cc5oncc5C[C@]4(C)[C@H]3CC[C@@]21C [Danazol] -24.3

Identify measured myelination corresponding to CN(C)CC/C=C1/c2ccccc2COc2ccc(CC(=O)O)cc21 [Olopatadine] -5.94

Identify measured myelination corresponding to CCCN(CCC)S(=O)(=O)c1ccc(C(=O)O)cc1 [Probenecid] 11.7

Identify measured myelination corresponding to CCCC(=O)O[C@]1(C(=O)COC(=O)CC)CC[C@H]2[C@@H]3CCC4=CC(=O)CC[C@]4(C)[C@H]3[C@@H](O)C[C@@]21C [Hydrocortisone buteprate] 12.1

Identify measured myelination corresponding to CNCC[C@@H](Oc1ccccc1C)c1ccccc1 [Atomoxetine] -17.2

Identify measured myelination corresponding to COc1ccc(C(=O)NCc2ccc(OCCN(C)C)cc2)cc1OC [Itopride] -10.7

Identify measured myelination corresponding to CCCCC(=O)O[C@H]1CC[C@H]2[C@@H]3CCc4cc(O)ccc4[C@H]3CC[C@]12C [Estradiol valerate] 11.9

Identify measured myelination corresponding to O=C(C1CCCCC1)N1CC(=O)N2CCc3ccccc3C2C1 (stereo unspecified) [Praziquantel] -1.87

Identify measured myelination corresponding to CCC(=O)O[C@@H]1CC(=O)O[C@H](C)C/C=C/C=C/[C@H](O)[C@H](C)C[C@H](CC=O)[C@H](O[C@@H]2O[C@H](C)[C@@H](O[C@H]3C[C@@](C)(O)[C@@H](OC(=O)CC)[C@H](C)O3)[C@H](N(C)C)[C@H]2O)[C@H]1OC [Midecamycin] 1.11

Identify measured myelination corresponding to O=C1C(CC[S+]([O-])c2ccccc2)C(=O)N(c2ccccc2)N1c1ccccc1 (stereo unspecified) [Sulfinpyrazone] -7.44

Identify measured myelination corresponding to CC(C)(C)NC[C@H](O)COc1nsnc1N1CCOCC1 [Timolol] -1.56

Identify measured myelination corresponding to NC[C@H]1CC[C@H](C(=O)Oc2ccc(CCC(=O)O)cc2)CC1 [Cetraxate] -18.2

====

Please go through the items and note down their fiber score / MBP score.
test system: E18 rat cortical neuron-glia co-culture; assay: fiber score / MBP score (myelination specific beyond OL differentiation) (ratio); higher = more myelination-specific MBP alignment; conditions: 1 µM; treatment time: 8 days (DIV5-DIV13)
Form: value (number only, do not type unit).

Identify measured fiber score / MBP score corresponding to NCc1ccc(S(N)(=O)=O)cc1 [Mafenide] 1.07

Identify measured fiber score / MBP score corresponding to OCCN(CCO)c1nc(N2CCCCC2)c2nc(N(CCO)CCO)nc(N3CCCCC3)c2n1 1.01

Identify measured fiber score / MBP score corresponding to CC1(C)S[C@@H]2[C@H](NC(=O)Cc3ccccc3)C(=O)N2[C@H]1C(=O)O 0.898

Identify measured fiber score / MBP score corresponding to COc1cc(NC(C)CCCN)c2ncccc2c1 (stereo not given) 0.815

Identify measured fiber score / MBP score corresponding to OCCN1CCN(CCCN2c3ccccc3Sc3ccc(C(F)(F)F)cc32)CC1 0.784
